Ref: patent US4272517A

LD50 by entry:
experiment: Acute oral toxicity (LD50) determined on mice; format: in vivo; conditions: mouse, in vivo, oral administration
Numeric only. Scale: mg/kg

NC(=O)NC(CS)C(=O)O (racemic)
13100

Query: LD50; subject: `NC(=O)N[C@@H](CS)C(=O)O`
13500
